The measurements presented in this section are drawn from ChEMBL document CHEMBL4622986.

assayComment: Cytotoxicity against human HepG2 cells incubated for 8 days by cellTiter-Glo assay
Format: cell-based

compound	CC50 at 192 h
CCOc1nc(N)nc2c1ncn2[C@@H]1O[C@H](COP(=O)(N[C@@H](C)C(=O)OCC(C)(C)C)Oc2cccc3ccccc23)[C@@H](O)[C@@]1(C)O (some centres not stated)	1500 nM
CCOc1nc(N)nc2c1ncn2[C@@H]1O[C@](F)(COP(=O)(N[C@@H](C)C(=O)OC(C)C)Oc2ccccc2)[C@@H](O)[C@@]1(C)F (some centres not stated)	> 100000 nM

###

assayComment: Prodrug activation in human hepatocytes assessed as time at which [[(2S,3S,4R,5R)-5-(2-amino-6-oxo-1H-purin-9-yl)-2,4-difluoro-3-hydroxy-4-methyl-tetrahydrofuran-2-yl]methoxy-hydroxy-phosphoryl]phosphono hydrogen phosphate metabolite formation reached steady state at 10 uM incubated for 2 to 72 hrs by LC-MS/MS analysis
Type: ADME, cell-based, Hepatocyte
endpointLabel: Time

                                   molecule     result
0  CCOc1nc(N)nc2c1ncn2[C@@H]1O[C@](F)(COP(=O)(N[C@@H](C)C(=O)OC(C)C)Oc2ccccc2)[C@@H](O)[C@@]1(C)F (stereo partly specified)  2 to 16 h
